Taken from patent US10723694B2.

Listed compounds paired with reported λEm (emission maximum)
assay: Fluorescence excitation and emission spectra in DMF
Type: physicochemical
The reply should be a number in nm, with the unit left off.

- [Zn+2].c1ccc2c(c1)-c1nc-2nc2[n-]c(nc3nc([n-]c4nc(n1)-c1ccccc1-4)-c1ccccc1-3)c1ccccc21 [Std-ZnPc, zinc(II) phthalocyanine, reference compound]: 676

Incoming: λEm (emission maximum) lookup needed for C#CCOCc1cc(C)cc(COCC#C)c1Oc1cc2c(cc1Cl)C1=Nc3c4cc(Oc5c(COCC#C)cc(C)cc5COCC#C)c(Cl)cc4c4[n]3[Zn][n]3c(c5cc(Cl)c(Oc6c(COCC#C)cc(C)cc6COCC#C)cc5c3=NC3=NC(=N4)c4cc(Oc5c(COCC#C)cc(C)cc5COCC#C)c(Cl)cc43)=NC2=N1 [Pc3] , thanks.
Outgoing: 686

====

assay: Fluorescence excitation and emission spectra in DMF
Format: physicochemical
applied_conditions: difference between excitation and emission maxima
Some compounds, each annotated with its measured Stokes shift ΔStokes.
Write the numeric value and append its unit.

// worked examples, Stokes shift ΔStokes included
- C#CCOCc1cc(C)cc(COCC#C)c1Oc1cc2c(cc1Oc1c(COCC#C)cc(C)cc1COCC#C)C1=Nc3c4cc(Oc5c(COCC#C)cc(C)cc5COCC#C)c(Oc5c(COCC#C)cc(C)cc5COCC#C)cc4c4[n]3[Zn][n]3c(c5cc(Oc6c(COCC#C)cc(C)cc6COCC#C)c(Oc6c(COCC#C)cc(C)cc6COCC#C)cc5c3=NC3=NC(=N4)c4cc(Oc5c(COCC#C)cc(C)cc5COCC#C)c(Oc5c(COCC#C)cc(C)cc5COCC#C)cc43)=NC2=N1: 4 nm
- C#CCOCc1cc(C)cc(COCC#C)c1Oc1cc2c(cc1Cl)C1=Nc3c4cc(Oc5c(COCC#C)cc(C)cc5COCC#C)c(Cl)cc4c4[n]3[Zn][n]3c(c5cc(Cl)c(Oc6c(COCC#C)cc(C)cc6COCC#C)cc5c3=NC3=NC(=N4)c4cc(Oc5c(COCC#C)cc(C)cc5COCC#C)c(Cl)cc43)=NC2=N1: 8 nm

Next, consider the following compound.
Incoming: Give its Stokes shift ΔStokes value. Item: "C#CCOCc1cc(C)cc(COCC#C)c1Oc1nc2c(nc1Oc1c(COCC#C)cc(C)cc1COCC#C)C1=Nc3c4nc(Oc5c(COCC#C)cc(C)cc5COCC#C)c(Oc5c(COCC#C)cc(C)cc5COCC#C)nc4c4[n]3[Zn][n]3c(c5nc(Oc6c(COCC#C)cc(C)cc6COCC#C)c(Oc6c(COCC#C)cc(C)cc6COCC#C)nc5c3=NC3=NC(=N4)c4nc(Oc5c(COCC#C)cc(C)cc5COCC#C)c(Oc5c(COCC#C)cc(C)cc5COCC#C)nc43)=NC2=N1"
Outgoing: 10 nm

====

# Fluorescence quantum yield ΦF values compiled below
assay: Fluorescence quantum yield determination
Assay type: physicochemical
applied_conditions: DMF per text (Table 2 title prints DMSO)
Just the number, please, no unit attached.

Some solved entries appear below for comparison.
- [Zn+2].c1ccc2c(c1)-c1nc-2nc2[n-]c(nc3nc([n-]c4nc(n1)-c1ccccc1-4)-c1ccccc1-3)c1ccccc21 [Std-ZnPc, zinc(II) phthalocyanine, reference compound]: 0.17
- C#CCOCc1cc(C)cc(COCC#C)c1Oc1cc2c(cc1Oc1c(COCC#C)cc(C)cc1COCC#C)C1=Nc3c4cc(Oc5c(COCC#C)cc(C)cc5COCC#C)c(Oc5c(COCC#C)cc(C)cc5COCC#C)cc4c4[n]3[Zn][n]3c(c5cc(Oc6c(COCC#C)cc(C)cc6COCC#C)c(Oc6c(COCC#C)cc(C)cc6COCC#C)cc5c3=NC3=NC(=N4)c4cc(Oc5c(COCC#C)cc(C)cc5COCC#C)c(Oc5c(COCC#C)cc(C)cc5COCC#C)cc43)=NC2=N1: 0.16
- C#CCOCc1cc(C)cc(COCC#C)c1Oc1ccc2c(c1)C1=NC2=Nc2c3cc(Oc4c(COCC#C)cc(C)cc4COCC#C)ccc3c3[n]2[Zn][n]2c(c4ccc(Oc5c(COCC#C)cc(C)cc5COCC#C)cc4c2=NC2=NC(=N3)c3cc(Oc4c(COCC#C)cc(C)cc4COCC#C)ccc32)=N1: 0.14

Incoming: Fill in the blank: the reported Fluorescence quantum yield ΦF of "C#CCOCc1cc(C)cc(COCC#C)c1Oc1cc2c(cc1Cl)C1=Nc3c4cc(Oc5c(COCC#C)cc(C)cc5COCC#C)c(Cl)cc4c4[n]3[Zn][n]3c(c5cc(Cl)c(Oc6c(COCC#C)cc(C)cc6COCC#C)cc5c3=NC3=NC(=N4)c4cc(Oc5c(COCC#C)cc(C)cc5COCC#C)c(Cl)cc43)=NC2=N1" is ____.
Outgoing: 0.17

Incoming: Query: Fluorescence quantum yield ΦF; subject: "C#CCOCc1cc(C)cc(COCC#C)c1Oc1nc2c(nc1Oc1c(COCC#C)cc(C)cc1COCC#C)C1=Nc3c4nc(Oc5c(COCC#C)cc(C)cc5COCC#C)c(Oc5c(COCC#C)cc(C)cc5COCC#C)nc4c4[n]3[Zn][n]3c(c5nc(Oc6c(COCC#C)cc(C)cc6COCC#C)c(Oc6c(COCC#C)cc(C)cc6COCC#C)nc5c3=NC3=NC(=N4)c4nc(Oc5c(COCC#C)cc(C)cc5COCC#C)c(Oc5c(COCC#C)cc(C)cc5COCC#C)nc43)=NC2=N1"
Outgoing: 0.14
